protocolDetails: growth inhibition of GSK3B-pretreated HCT116 cells – cell-based, CellTiter-Glo, 0.2 to 20 µM (AID 1117336)
conditionContext: HCT116 viability after GSK3B inhibitor, at 20 µM, stronger effect = higher value
quantity: viability decrease (%)

>>> df
                                    compound  readoutvalue
 0  O=c1c(O)c(-c2ccc(O)c(O)c2)oc2cc(O)cc(O)c12          81.4
 1  CCN(CC)CC1CCCCN1CC(=O)N1c2ccccc2C(=O)Nc2cccnc21 (stereo not drawn)         -12.6
 2  O=C(O)CSCC(=O)NC1CCSC1=O (stereo not drawn)            -4
 3  CC(C)COCC(CN(Cc1ccccc1)c1ccccc1)N1CCCC1 (stereo not drawn)            98
 4  Cc1onc(-c2ccccc2)c1C(=O)N[C@@H]1C(=O)N2[C@@H]1SC(C)(C)[C@@H]2C(=O)O           0.4
 5  CN(C)[C@@H]1C(=O)C(C(N)=O)=C(O)[C@@]2(O)C(=O)C3=C(O)c4c(O)ccc(Cl)c4[C@@H](O)[C@H]3C[C@@H]12         -29.7
 6  Cc1nnc(SCC2=C(C(=O)O)N3C(=O)[C@@H](NC(=O)Cn4cnnn4)[C@H]3SC2)s1           3.2
 7  COc1ccc(C(=O)CC(=O)c2ccc(C(C)(C)C)cc2)cc1         -88.8
 8                     CCCCCCOc1ccccc1C(N)=O         -31.8
 9  C[C@@H]1C[C@H]2[C@@H]3C[C@H](F)C4=CC(=O)C(Cl)=C[C@]4(C)[C@@]3(F)[C@@H](O)C[C@]2(C)[C@@]1(O)C(=O)CO           6.2
10              C[N+](C)(C)CCCCCC[N+](C)(C)C          10.7
11            CC(=O)Nc1c(I)cc(I)c(C(=O)O)c1I         -43.4
12  CC1(C)S[C@@H]2[C@H](NC(=O)C(C(=O)O)c3ccccc3)C(=O)N2[C@H]1C(=O)O (stereo partly drawn)         -17.4
13           Cc1ccnc2c1NC(=O)c1cccnc1N2C1CC1         -14.3
14          O=C(O)CCC(=O)c1ccc(-c2ccccc2)cc1           -13
15               CCCCOc1ccc(OCCCN2CCOCC2)cc1         -10.8
16                Cn1c(=O)c2c(ncn2C)n(C)c1=O          -1.7
17  CC(C(=O)O)c1ccc2c(c1)[nH]c1ccc(Cl)cc12 (stereo not drawn)           6.1
18          Cc1cc(C(C)(C)C)c(O)c(C(C)(C)C)c1         -7.15
19  CC1(C)O[C@@H]2C[C@H]3[C@@H]4CCC5=CC(=O)CC[C@]5(C)[C@@]4(F)[C@@H](O)C[C@]3(C)[C@]2(C(=O)CCl)O1           -39
20                                  NC(=O)NO          48.8
21           C[C@](N)(Cc1ccc(O)c(O)c1)C(=O)O          17.5
22         COc1cc(NS(=O)(=O)c2ccc(N)cc2)ncn1          16.8

The measured values listed here are drawn from PubChem BioAssay.
